Every entry's value here was drawn from ChEMBL document CHEMBL1136266.

tested on: DU-145; assay: Cellular uptake of compound into DU145 tumor cells by laser scanning cytometry at a concentration of 0.1 uM; format: functional, cell-based; conditions: Homo sapiens
Rule: Uptake below 70% gives yes. Equal to or above 70% gives no.

Please review the following examples before continuing.
Task item: API: query returns whether the molecule falls strictly under 70% in Uptake. Query: O=C1OC2(c3ccc(O)cc3Oc3cc(O)ccc32)c2ccccc21
Reply: yes

Task item: API: query returns whether the molecule falls strictly under 70% in Uptake. Query: NCCCCC(CC(N)=O)NC(=O)CC(CCCCN)NC(=O)CC(CCCCN)NC(=O)CC(CCCCN)NC(=O)CC(CCCCN)NC(=O)CC(CCCCN)NC(=O)COCCOCCNC(=O)c1ccccc1C1c2ccc(O)cc2Oc2cc(O)ccc21 (stereo not given)
Reply: yes

Task item: API: query returns whether the molecule falls strictly under 70% in Uptake. Query: NCCCCC(CC(N)=O)NC(=O)CC(CCCCN)NC(=O)CC(CCCCN)NC(=O)CC(CCCCN)NC(=O)CC(CCCCN)NC(=O)CC(CCCCN)NC(=O)CC(CCCCN)NC(=O)CC(CCCCN)NC(=O)COCCOCCNC(=O)c1ccccc1C1c2ccc(O)cc2Oc2cc(O)ccc21 (stereo not given)
Reply: no

Moving on to the next molecule.
Task item: API: query returns whether the molecule falls strictly under 70% in Uptake. Query: NCCCCC(CC(N)=O)NC(=O)CC(CCCCN)NC(=O)CC(CCCCN)NC(=O)CC(CCCCN)NC(=O)CC(CCCCN)NC(=O)CC(CCCCN)NC(=O)CC(CCCCN)NC(=O)COCCOCCNC(=O)c1ccccc1C1c2ccc(O)cc2Oc2cc(O)ccc21 (stereo not given)
Reply: no

###

List of Uptake values.
system: HCT-15; test: Cellular uptake of compound into HCT15 tumor cells by laser scanning cytometry at a concentration of 10 uM; format: functional, cell-based; details: Homo sapiens
Please reply with the bare figure in % and do not write the unit itself.

Task item: Need Uptake of NCCCCC(CC(N)=O)NC(=O)CC(CCCCN)NC(=O)CC(CCCCN)NC(=O)CC(CCCCN)NC(=O)CC(CCCCN)NC(=O)CC(CCCCN)NC(=O)CC(CCCCN)NC(=O)COCCOCCNC(=O)c1ccccc1C1c2ccc(O)cc2Oc2cc(O)ccc21 (configuration not stated) , thanks.
Reply: 99.8

Consider the record given below.
Task item: Need Uptake of NCCCCC(CC(N)=O)NC(=O)CC(CCCCN)NC(=O)CC(CCCCN)NC(=O)CC(CCCCN)NC(=O)CC(CCCCN)NC(=O)CC(CCCCN)NC(=O)CC(CCCCN)NC(=O)CC(CCCCN)NC(=O)COCCOCCNC(=O)c1ccccc1C1c2ccc(O)cc2Oc2cc(O)ccc21 (configuration not stated) , thanks.
Reply: 99.9

###

system: HCT-15; experiment: Cellular uptake of compound into HCT15 tumor cells by laser scanning cytometry at a concentration of 10 uM; assay type: functional, cell-based; conditions: Homo sapiens
List of Uptake values.
Please reply with the bare figure in % and do not write the unit itself.

Task item: Need Uptake of NCCCCC(CC(N)=O)NC(=O)CC(CCCCN)NC(=O)CC(CCCCN)NC(=O)CC(CCCCN)NC(=O)CC(CCCCN)NC(=O)COCCOCCNC(=O)c1ccccc1C1c2ccc(O)cc2Oc2cc(O)ccc21 (stereo not drawn) , thanks.
Reply: 99.8

Task item: Need Uptake of O=C1OC2(c3ccc(O)cc3Oc3cc(O)ccc32)c2ccccc21 , thanks.
Reply: 0.7

---
Task item: Need Uptake of NCCCCC(CC(N)=O)NC(=O)CC(CCCCN)NC(=O)CC(CCCCN)NC(=O)CC(CCCCN)NC(=O)CC(CCCCN)NC(=O)CC(CCCCN)NC(=O)COCCOCCNC(=O)c1ccccc1C1c2ccc(O)cc2Oc2cc(O)ccc21 (stereo not drawn) , thanks.
Reply: 99.6
